Kindly supply the reported IC50 values for the records listed here.
- Tested on: Plasmodium falciparum
- experiment: Antiplasmodial activity against chloroquine-sensitive Plasmodium falciparum D10 assessed as inhibition of parasite LDH activity after 72 hrs by spectrophotometry
- Assay type: functional, organism-based
- setup-conditions: D10, 72 h

What does the record list as IC50 for O=[N+]([O-])OCC1CCNCC1 ?
> 5000 nM

I am curious: what IC50 value has been reported for O=[N+]([O-])OCCCN1CCNCC1 ?
> 5000 nM

Could you share which IC50 value was measured for O=[N+]([O-])OCCCNCc1cc(Nc2ccnc3cc(Cl)ccc23)ccc1O ?
27 nM

Fill in the blank: the reported IC50 of CN(C)CCCOc1no[n+]([O-])c1S(=O)(=O)c1ccccc1 is ____.
> 5000 nM

What does the record list as IC50 for O=[N+]([O-])OCCN1CCNCC1 ?
> 5000 nM

What value of IC50 has been recorded for this entry: CCN(CCOc1no[n+]([O-])c1S(=O)(=O)c1ccccc1)Cc1cc(Nc2ccnc3cc(Cl)ccc23)ccc1O.Cl.Cl.Cl
46 nM

Give the measured IC50 of CCN(CCCCCCO[N+](=O)[O-])Cc1cc(Nc2ccnc3cc(Cl)ccc23)ccc1O .
31 nM

Quick one: IC50 of CCN(CCOc1no[n+]([O-])c1-c1ccccc1)Cc1cc(Nc2ccnc3cc(Cl)ccc23)ccc1O ?
23 nM

What does the record list as IC50 for O=[N+]([O-])OCC1CCN(Cc2cc(Nc3ccnc4cc(Cl)ccc34)ccc2O)CC1 ?
19 nM

Please give the measured IC50 for this molecule: O=[N+]([O-])OCCCN1CCN(Cc2cc(Nc3ccnc4cc(Cl)ccc34)ccc2O)CC1
18 nM

Given CCN(CC)Cc1cc(Nc2ccnc3cc(Cl)ccc23)ccc1O.Cl , state its recorded IC50.
12 nM

Recorded IC50 of O=[N+]([O-])OCCC1CCNCC1 , please.
> 5000 nM

Name the reported IC50 value associated with the molecule O=[N+]([O-])OCCN1CCN(Cc2cc(Nc3ccnc4cc(Cl)ccc34)ccc2O)CC1
55 nM

# get_value(readout='IC50', item= CN(C)CCCOc1no[n+]([O-])c1-c1ccccc1 )
> 5000 nM

Consider the molecule shown here: O=[N+]([O-])OCCC1CCN(Cc2cc(Nc3ccnc4cc(Cl)ccc34)ccc2O)CC1 What is its recorded IC50?
19 nM

I have this molecule here, CCNCCCCC(CO[N+](=O)[O-])O[N+](=O)[O-] (centres undefined) , and I need its recorded IC50.
> 5000 nM

What measured IC50 goes with CCNCCCCCCO[N+](=O)[O-] ?
> 5000 nM

Look up IC50 for this molecule: CCN(CCCCC(CO[N+](=O)[O-])O[N+](=O)[O-])Cc1cc(Nc2ccnc3cc(Cl)ccc23)ccc1O (centres undefined)
38 nM

Return reported IC50; argument: CCN(CCCO[N+](=O)[O-])Cc1cc(Nc2ccnc3cc(Cl)ccc23)ccc1O
27 nM
